- Target under test: Beta-lactamase 1 (Bacillus cereus)
- Sequence (P00809 whole entry): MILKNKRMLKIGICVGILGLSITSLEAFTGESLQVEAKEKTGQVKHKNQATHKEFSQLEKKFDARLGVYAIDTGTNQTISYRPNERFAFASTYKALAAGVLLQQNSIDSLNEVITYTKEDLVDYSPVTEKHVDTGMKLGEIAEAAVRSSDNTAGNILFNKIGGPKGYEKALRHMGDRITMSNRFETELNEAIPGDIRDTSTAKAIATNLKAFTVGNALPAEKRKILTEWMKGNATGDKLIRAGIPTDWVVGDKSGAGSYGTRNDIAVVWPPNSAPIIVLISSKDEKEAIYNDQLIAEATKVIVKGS
- Method description: Inhibition of Beta-lactamase of Bacillus cereus (class A enzyme) without pre-incubation
pIC50: −log10 of the molar value.
// f strictly below 3 in pIC50; t otherwise

Input line: In plain terms: is recorded pIC50 at least 3 for C[C@@]1(CSc2nc3ccccc3s2)S[C@@H]2[C@@H](Cl)C(=O)N2[C@H]1C(=O)O ?
Output line: f

Input line: Now the molecule C[C@@]1(CSc2nc3ccccc3s2)S[C@@H]2[C@@H](F)C(=O)N2[C@H]1C(=O)O
Output line: f

Input line: Quick one: C[C@]1(CCl)[C@H](C(=O)O)N2C(=O)[C@H](Br)[C@H]2S1(=O)=O
Output line: f

Input line: Record: C[C@]1(CCl)[C@H](C(=O)O)N2C(=O)C[C@H]2S1(=O)=O
Output line: t

Input line: And for CC1(C)[C@H](C(=O)O)N2C(=O)[C@H](Cl)[C@H]2S1(=O)=O ?
Output line: f

Input line: Then this molecule: C[C@]1(CCl)[C@H](C(=O)O)N2C(=O)[C@H](F)[C@H]2S1(=O)=O
Output line: f

Input line: Next molecule: CC1(C)[C@H](C(=O)O)N2C(=O)C[C@H]2S1(=O)=O [SULBACTAM]
Output line: t

Input line: Same question for C[C@]1(CCl)[C@H](C(=O)O)N2C(=O)[C@H](Cl)[C@H]2S1(=O)=O please.
Output line: t

Input line: What about this molecule? C[C@@]1(CSc2nc3ccccc3s2)S[C@@H]2[C@@H](Br)C(=O)N2[C@H]1C(=O)O
Output line: f
